- target_of_assay: CDC25B (Homo sapiens)
- Sequence (P30305 whole entry, species assumed): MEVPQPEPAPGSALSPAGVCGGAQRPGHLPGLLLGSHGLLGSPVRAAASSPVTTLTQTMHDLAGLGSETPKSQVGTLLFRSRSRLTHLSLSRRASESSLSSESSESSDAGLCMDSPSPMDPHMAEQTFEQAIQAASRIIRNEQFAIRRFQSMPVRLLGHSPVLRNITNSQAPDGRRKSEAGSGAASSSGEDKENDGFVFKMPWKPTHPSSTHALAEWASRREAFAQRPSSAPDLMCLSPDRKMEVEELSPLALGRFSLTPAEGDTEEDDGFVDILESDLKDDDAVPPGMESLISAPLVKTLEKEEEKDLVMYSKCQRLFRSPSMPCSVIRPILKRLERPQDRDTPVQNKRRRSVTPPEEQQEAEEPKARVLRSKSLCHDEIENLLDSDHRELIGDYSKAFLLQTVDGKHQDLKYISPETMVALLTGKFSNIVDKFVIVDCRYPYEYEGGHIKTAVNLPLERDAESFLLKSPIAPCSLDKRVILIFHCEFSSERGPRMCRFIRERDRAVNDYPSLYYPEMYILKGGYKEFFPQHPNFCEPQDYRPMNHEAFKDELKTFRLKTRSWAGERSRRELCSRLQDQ
- assay: CDC25B enzymatic activity assay (OMFP dephosphorylation)
- Assay type: biochemical
- test_parameters: OMFP substrate 10 μM, 100 nM CDC25B, 30 °C, pH 8.0; read-out: Anti-CDC25B IC50 (µM) ± SD
The following compounds are shown together with reported IC50 values.
Value expressed in µM; do not type the unit.

Answered cases to consult:
COC1OC(=O)c2c(O)cc(C)c3c4c(c(O)c1c23)C12COC(=O)c3c(O)cc(C)c(c31)C(=O)C4C2OC(C)=O (centres unmarked)
0.4
[Na+].[Na+].[Na+].[O]=[V]([O-])([O-])[O-] [Na3VO4, reference compound]
0.52
COC12c3c(C)cc(O)c4c(=O)occ(c34)C(=O)C1C13COC(=O)c4c(O)cc(C)c(c41)C(=O)C2C3OC(C)=O (centres unmarked)
0.75
COC12c3c(C)cc(O)c4c3C3=C(OC(C)(O)CC3OC4=O)C1C13COC(=O)c4c(O)cc(C)c(c41)C(=O)C2C3OC(C)=O (centres unmarked)
0.38

stdin: Write IC50 of CC(=O)OC1C2C(=O)c3c(C)cc(O)c4c3C1(COC4=O)c1c(O)c3c4c(c(O)cc(C)c4c12)C(=O)OC3=O (centres unmarked) ; system used: CDC25B (Homo sapiens)
stdout: 0.26

Taken from paper PMC6780165.
